Sourced from PubChem BioAssay (NCI)

- Tested on: K-562 leukemia
- Protocol: NCI tumour cell line growth inhibition, 48 h
# reported GI50; entries follow

Structure | GI50
O=C(CSc1nc2ccc([N+](=O)[O-])cc2[nH]1)Nc1cccc(C(F)(F)F)c1 | 2160 nM
c1ccc(Oc2c3ccccc3nc3ccccc23)cc1 | 454 nM
C=C(CN1CCc2ccccc2C1)c1ccc(/C=C/C(=O)Nc2ccccc2N)cc1 | 5490 nM
CCNCCNc1cc(-c2ccc(Cl)cc2)c(C#N)c2nc3ccccc3n12 | 1290 nM
Cc1c(C(=O)N/N=C/c2ccc(O)cc2)nnn1-c1ccnc2c(C(F)(F)F)cccc12 | > 100000 nM
